Just for reference, patent US8329706B2 is where these values come from.

Target: UniProtKB O43613
Sequence (O43613 1-425): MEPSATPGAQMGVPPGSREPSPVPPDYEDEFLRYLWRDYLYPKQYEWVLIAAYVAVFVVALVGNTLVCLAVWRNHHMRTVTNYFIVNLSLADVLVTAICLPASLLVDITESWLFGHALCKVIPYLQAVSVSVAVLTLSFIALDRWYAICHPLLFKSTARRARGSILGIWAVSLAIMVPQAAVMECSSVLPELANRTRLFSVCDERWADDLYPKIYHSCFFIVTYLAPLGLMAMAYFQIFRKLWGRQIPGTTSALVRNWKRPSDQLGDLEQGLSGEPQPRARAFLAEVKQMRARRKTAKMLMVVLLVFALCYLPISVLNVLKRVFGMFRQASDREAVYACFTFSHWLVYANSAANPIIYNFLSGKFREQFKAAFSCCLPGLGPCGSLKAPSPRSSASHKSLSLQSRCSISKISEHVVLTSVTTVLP
Assay: FLIPR intracellular calcium assay, orexin receptor antagonistic activity (OX1)
Settings: CHO cells expressing human orexin-1 receptor; agonist 3 nM orexin-A; normalized to on-plate reference; * geomean n = 5, *2 geomean n = 2
pIC50: −log10 of the molar value.
measured.attribute: pIC50

molecule: CCOc1ccccc1C1OCC(=O)N1Cc1ccc(F)c(C)c1 (stereo not drawn)
target.or.system: UniProtKB O43613
pIC50: 5.04
//
molecule: COc1cccc(OC)c1C1OCC(=O)N1Cc1ccc(F)c(C(F)(F)F)c1 (stereo not drawn)
target.or.system: UniProtKB O43613
pIC50: 5.86
//
molecule: COc1cccc(OC)c1C1O[C@H](C)C(=O)N1Cc1ccc2ccccc2c1 (stereo partly drawn)
target.or.system: UniProtKB O43613
pIC50: 7.33

a. COc1cccc(OC)c1C1O[C@H](C)C(=O)N1Cc1ccc(OC(C)C)cc1 (stereo partly drawn)
b. COc1cccc(OC)c1C1O[C@H](C)C(=O)N1Cc1ccc(OC(F)(F)F)cc1 (stereo partly drawn)
[ask] Pick one, a or b : lowest reported pIC50. When you have decided, please share the label of that item.
[reply] a
(a: 5.92, b: 6.59)

1. COc1cccc(OC)c1C1OCC(=O)N1Cc1ccc(Cl)c(F)c1 (stereo not drawn)
2. COc1cccc(OC)c1C1OCC(=O)N1Cc1ccc(Cl)cc1Cl (stereo not drawn)
[ask] Determine, for 1 and 2 , which has the greater value of pIC50. When you have decided, please share the label of that item.
[reply] 2

###

Biological target: human orexin-2 receptor (Homo sapiens, UniProt O43614)
Sequence (O43614 1-444): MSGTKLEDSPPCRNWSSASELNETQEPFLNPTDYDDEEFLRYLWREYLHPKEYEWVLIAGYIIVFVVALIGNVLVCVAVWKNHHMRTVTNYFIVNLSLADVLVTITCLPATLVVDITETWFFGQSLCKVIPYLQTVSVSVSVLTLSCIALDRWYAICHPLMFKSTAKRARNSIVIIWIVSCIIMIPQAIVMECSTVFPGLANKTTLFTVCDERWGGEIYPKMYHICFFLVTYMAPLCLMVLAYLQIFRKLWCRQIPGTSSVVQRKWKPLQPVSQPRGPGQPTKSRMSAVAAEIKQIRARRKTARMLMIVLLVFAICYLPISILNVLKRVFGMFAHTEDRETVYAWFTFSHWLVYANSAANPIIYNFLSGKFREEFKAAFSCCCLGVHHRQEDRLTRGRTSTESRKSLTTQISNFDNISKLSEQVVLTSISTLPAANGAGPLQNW
Test: FLIPR intracellular calcium assay, orexin receptor antagonistic activity (OX2)
Conditions: CHO cells expressing human orexin-2 receptor; agonist 3 nM orexin-A; normalized to on-plate reference; * geomean n = 5, *2 geomean n = 2
measured.attribute: IC50 (nM)

Check out these entries, answers already filled in.
molecule: CCOc1ccccc1C1OCC(=O)N1Cc1cc(C(F)(F)F)ccc1F (stereo not drawn) [Example 13]
measured.attribute: IC50
meas.value: 290
//
molecule: COc1cccc(C(F)(F)F)c1C1OC(C)(C)C(=O)N1Cc1ccc(Oc2ccccc2)cc1 (stereo not drawn) [Example 86]
measured.attribute: IC50
meas.value: 65

I. COc1cccc(OC)c1C1O[C@@H](C)C(=O)N1Cc1ccc(Oc2ccccc2)cc1 (stereo partly drawn) [Example 59]
II. COc1cccc(OC)c1C1OC(C)(C)C(=O)N1Cc1ccc(Oc2ncccn2)cc1 (stereo not drawn) [Example 95]
III. CCOc1ccccc1C1OCC(=O)N1Cc1cccc(OC(F)(F)F)c1 (stereo not drawn) [Example 7]
[ask] Order these by IC50, descending, and give the full ranking. Ranked list of labels, please, in the requested order.
[reply] II, I, III

1. CCOc1ccccc1C1OCC(=O)N1Cc1ccc(OC(F)(F)F)c(Cl)c1 (stereo not drawn) [Example 18]
2. COc1cccc(OC)c1C1OCC(=O)N1Cc1ccc(F)c(C(F)(F)F)c1 (stereo not drawn) [Example 38]
[ask] Determine, for 1 and 2 , which has the greater value of IC50. When you have decided, please share the label of that item.
[reply] 2
(2: 730 nM, 1: 26 nM)

1. COc1cccc(OC)c1C1OC(C)(C)C(=O)N1Cc1ccc(OC(F)(F)F)c(F)c1 (stereo not drawn) [Example 67]
2. COc1cccc(OC)c1C1OC(C)(C)C(=O)N1Cc1ccc(-c2ccccc2)cc1 (stereo not drawn) [Example 87]
3. CC1(C)OC(c2c(F)cccc2F)N(Cc2ccc(OC(F)(F)F)c(Cl)c2)C1=O (stereo not drawn) [Example 82]
4. CCOc1ccccc1C1OCC(=O)N1Cc1ccc(F)c(C(F)(F)F)c1 (stereo not drawn) [Example 14]
5. CCOc1ccccc1C1OCC(=O)N1Cc1ccc(Cl)c(Cl)c1 (stereo not drawn) [Example 29]
[ask] Please put the entries in order of rising IC50. Ranked list of labels, please, in the requested order.
[reply] 3, 4, 1, 5, 2
(3: 110 nM, 4: 169 nM, 1: 322 nM, 5: 696 nM, 2: 1090 nM)

A. CCOc1ccccc1C1OCC(=O)N1Cc1ccc(C(F)(F)F)c(F)c1 (stereo not drawn) [Example 15]
B. CCOc1ccccc1C1OCC(=O)N1Cc1ccccc1C (stereo not drawn) [Example 2]
C. COc1cccc(OC)c1C1O[C@H](C)C(=O)N1Cc1ccc(OC(F)(F)F)c(Cl)c1 (stereo partly drawn) [Example 56]
D. CCOc1ccccc1C1OCC(=O)N1Cc1ccc(Cl)cc1F (stereo not drawn) [Example 19]
[ask] Please put the entries in order of rising IC50. Ranked list of labels, please, in the requested order.
[reply] C, B, A, D
(C: 111 nM, B: 223 nM, A: 359 nM, D: 586 nM)

P. COc1cccc(OC)c1C1OCC(=O)N1Cc1ccc(C(F)(F)F)cc1 (stereo not drawn) [Example 32]
Q. COc1cccc(OC)c1C1O[C@H](C)C(=O)N1Cc1ccc(OC(C)C)cc1 (stereo partly drawn) [Example 74]
[ask] Determine, for P and Q , which has the greater value of IC50. When you have decided, please share the label of that item.
[reply] P
